Overview of recorded log10(IC50) for various compounds
- test.target: eeAChE (Electrophorus electricus, UniProt O42275)
- Sequence (O42275 24-633): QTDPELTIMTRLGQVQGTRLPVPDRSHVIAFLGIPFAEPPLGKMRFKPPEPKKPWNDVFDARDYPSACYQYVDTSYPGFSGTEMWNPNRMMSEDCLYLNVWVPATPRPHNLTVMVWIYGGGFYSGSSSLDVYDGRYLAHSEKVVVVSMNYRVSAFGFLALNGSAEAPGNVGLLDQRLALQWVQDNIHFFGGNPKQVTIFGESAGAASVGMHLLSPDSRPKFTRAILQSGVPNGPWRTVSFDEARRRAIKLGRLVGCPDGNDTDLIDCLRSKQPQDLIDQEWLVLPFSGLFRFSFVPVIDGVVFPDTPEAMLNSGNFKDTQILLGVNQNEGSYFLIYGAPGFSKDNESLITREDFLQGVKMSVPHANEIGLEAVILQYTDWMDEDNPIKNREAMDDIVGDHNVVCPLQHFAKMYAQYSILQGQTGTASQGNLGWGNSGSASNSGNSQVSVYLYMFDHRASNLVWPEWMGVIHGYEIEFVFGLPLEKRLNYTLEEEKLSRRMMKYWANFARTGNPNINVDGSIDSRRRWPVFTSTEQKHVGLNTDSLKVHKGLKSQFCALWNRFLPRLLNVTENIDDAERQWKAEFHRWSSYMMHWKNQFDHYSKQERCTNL
- assay.overview: In vitro eeAChE inhibition, Ellman's method
- Type: biochemical
- details: IC50 (μM) ± SEM eeAChE, mean ± SEM (n = 3)
On a log10 scale: recorded IC50, unit µM.

Record excerpt, results attached:
INSERT INTO measurements (compound, test_target, test_readout, test_value) VALUES
  ('COc1ccc(C2CC(=O)C3=C(C2)N=c2s/c(=C\c4c[nH]c5ccccc45)c(=O)n2C3c2c[nH]c3ccccc23)cc1 (centres unmarked)', 'eeAChE (Electrophorus electricus, UniProt O42275)', 'log10(IC50)', -0.05),
  ('O=C1CCCC2=C1C(c1c[nH]c3ccccc13)n1c(s/c(=C\c3ccc(OCc4ccccc4)cc3)c1=O)=N2 (centres unmarked)', 'eeAChE (Electrophorus electricus, UniProt O42275)', 'log10(IC50)', 0.67),
  ('COc1ccc(C2CC(=O)C3=C(C2)N=c2s/c(=C\c4ccc(OCc5ccccc5)cc4)c(=O)n2C3c2c[nH]c3ccccc23)cc1 (centres unmarked)', 'eeAChE (Electrophorus electricus, UniProt O42275)', 'log10(IC50)', -0.10),
  ('O=C1CC(c2ccccc2)CC2=C1C(c1c[nH]c3ccccc13)n1c(s/c(=C\c3ccc(OCCNCCc4c[nH]c5ccccc45)cc3)c1=O)=N2 (centres unmarked)', 'eeAChE (Electrophorus electricus, UniProt O42275)', 'log10(IC50)', -1.09),
  ('CC1(C)CC(=O)C2=C(C1)N=c1s/c(=C\c3c[nH]c4ccccc34)c(=O)n1C2c1c[nH]c2ccccc12 (centres unmarked)', 'eeAChE (Electrophorus electricus, UniProt O42275)', 'log10(IC50)', 0.79);

Param request: log10(IC50) | system eeAChE (Electrophorus electricus, UniProt O42275) | item O=C1CCCC2=C1C(c1c[nH]c3ccccc13)n1c(s/c(=C\c3ccc(OCCNCCc4c[nH]c5ccccc45)cc3)c1=O)=N2 (centres unmarked)
-0.92

Param request: log10(IC50) | system eeAChE (Electrophorus electricus, UniProt O42275) | item O=C1CC(c2ccccc2)CC2=C1C(c1c[nH]c3ccccc13)n1c(s/c(=C\c3ccc(OCc4ccccc4)cc3)c1=O)=N2 (centres unmarked)
-0.07

Param request: log10(IC50) | system eeAChE (Electrophorus electricus, UniProt O42275) | item CC1(C)CC(=O)C2=C(C1)N=c1s/c(=C\c3ccc(OCc4ccccc4)cc3)c(=O)n1C2c1c[nH]c2ccccc12 (centres unmarked)
0.57

###

- test.target: eeAChE (Electrophorus electricus, UniProt O42275)
- assay.overview: In vitro eeAChE inhibition, Ellman's method
- Format: biochemical
test.readout: SI = selectivity index = IC50 of eqBChE/IC50 of eeAChE
In your answer, state the number alone without any accompanying words.

Record excerpt, results attached:
INSERT INTO assay_data (molecule, test_value) VALUES
  ('CC1(C)CC(=O)C2=C(C1)N=c1s/c(=C\c3ccc(OCc4ccccc4)cc3)c(=O)n1C2c1c[nH]c2ccccc12 (stereo not drawn) [Compound 31]', 3.7),
  ('COc1ccc(C2CC(=O)C3=C(C2)N=c2s/c(=C\c4ccc(OCCNCCc5c[nH]c6ccccc56)cc4)c(=O)n2C3c2c[nH]c3ccccc23)cc1 (stereo not drawn) [Compound 37]', 14.2);

Param request: SI = selectivity index = IC50 of eqBChE/IC50 of eeAChE | system eeAChE (Electrophorus electricus, UniProt O42275) | item CC1(C)CC(=O)C2=C(C1)N=c1s/c(=C\c3c[nH]c4ccccc34)c(=O)n1C2c1c[nH]c2ccccc12 (stereo not drawn) [Compound 26]
3.1

Param request: SI = selectivity index = IC50 of eqBChE/IC50 of eeAChE | system eeAChE (Electrophorus electricus, UniProt O42275) | item O=C1CC(c2ccccc2)CC2=C1C(c1c[nH]c3ccccc13)n1c(s/c(=C\c3ccc(OCCNCCc4c[nH]c5ccccc45)cc3)c1=O)=N2 (stereo not drawn) [Compound 36]
17.2

Param request: SI = selectivity index = IC50 of eqBChE/IC50 of eeAChE | system eeAChE (Electrophorus electricus, UniProt O42275) | item O=C1CCCC2=C1C(c1c[nH]c3ccccc13)n1c(s/c(=C\c3ccc(OCCNCCc4c[nH]c5ccccc45)cc3)c1=O)=N2 (stereo not drawn) [Compound 34]
3.7

Param request: SI = selectivity index = IC50 of eqBChE/IC50 of eeAChE | system eeAChE (Electrophorus electricus, UniProt O42275) | item CC1(C)CC(=O)C2=C(C1)N=c1s/c(=C\c3ccc(OCCNCCc4c[nH]c5ccccc45)cc3)c(=O)n1C2c1c[nH]c2ccccc12 (stereo not drawn) [Compound 35]
15.0
